In this section we review reported kinase still bound, per cent of control values for a set of molecules.
assayed.target: UniProtKB P24723
Sequence (P24723 whole entry, looked up): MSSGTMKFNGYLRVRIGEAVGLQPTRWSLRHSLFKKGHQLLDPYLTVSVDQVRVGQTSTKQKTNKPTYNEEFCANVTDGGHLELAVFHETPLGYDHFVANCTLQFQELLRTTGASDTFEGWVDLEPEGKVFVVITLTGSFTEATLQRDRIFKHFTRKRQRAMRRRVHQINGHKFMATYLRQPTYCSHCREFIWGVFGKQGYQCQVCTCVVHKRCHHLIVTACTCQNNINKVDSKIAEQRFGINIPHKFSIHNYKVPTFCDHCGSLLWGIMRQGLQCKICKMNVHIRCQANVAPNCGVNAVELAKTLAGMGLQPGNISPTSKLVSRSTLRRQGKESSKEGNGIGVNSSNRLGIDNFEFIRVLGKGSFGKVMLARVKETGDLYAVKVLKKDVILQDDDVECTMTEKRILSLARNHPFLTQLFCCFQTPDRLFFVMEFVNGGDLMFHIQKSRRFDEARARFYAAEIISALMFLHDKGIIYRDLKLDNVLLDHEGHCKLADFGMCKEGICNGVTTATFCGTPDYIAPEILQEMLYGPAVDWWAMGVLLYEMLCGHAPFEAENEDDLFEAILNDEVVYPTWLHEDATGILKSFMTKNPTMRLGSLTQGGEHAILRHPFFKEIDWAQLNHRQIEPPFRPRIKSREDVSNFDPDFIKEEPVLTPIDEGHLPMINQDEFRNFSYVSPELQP
assay.notes: KINOMEscan competition binding
experimental.conditions: compound 1.0 µM
// units = %; emit number, no label

Sample records with kinase still bound, per cent of control:
CN(C)C/C=C/C(=O)Nc1cccc(C(=O)Nc2ccc(Nc3nccc(-c4c(-c5ccccc5)nn5ccccc45)n3)cc2)c1 100
CN(C)C/C=C/C(=O)Nc1cccc(C(=O)Nc2ccc(Nc3nccc(-c4cccnc4)n3)cc2)c1 84
Cc1cc(NC(=O)c2cccc(NC(=O)/C=C/CN(C)C)c2)ccc1Nc1nccc(-c2cccnc2)n1 94

Below: the item to evaluate.
Would you kindly share the measured kinase still bound, per cent of control for CN(C)C/C=C/C(=O)Nc1cccc(C(=O)Nc2ccc(Nc3nccc(/C(C#N)=C4\Nc5ccccc5S4)n3)cc2)c1 ?
100

Reference for the values: the kinase profiling compilation of Christmann-Franck et al. (2016)
